EXPERIMENTAL_SYSTEM: human orexin-2 receptor (Homo sapiens (Human))
ASSAY_REMARKS: In vitro assay: intracellular calcium measurements (FLIPR), antagonistic activity
Type: cell-based
REPORTED_ENDPOINT: IC50 (nM)
Please state the figure in nM; there is no need to write the unit.

Find IC50 (human orexin-2 receptor (Homo sapiens (Human))) for the entry CCOc1cc(F)ccc1[C@@H]1C[C@H](Cl)C(=O)N1Cc1ccc(OC(F)(F)F)cc1 (racemic)
462

----------
EXPERIMENTAL_SYSTEM: human orexin-2 receptor (Homo sapiens (Human), UniProt O43614)
Sequence (O43614 whole entry): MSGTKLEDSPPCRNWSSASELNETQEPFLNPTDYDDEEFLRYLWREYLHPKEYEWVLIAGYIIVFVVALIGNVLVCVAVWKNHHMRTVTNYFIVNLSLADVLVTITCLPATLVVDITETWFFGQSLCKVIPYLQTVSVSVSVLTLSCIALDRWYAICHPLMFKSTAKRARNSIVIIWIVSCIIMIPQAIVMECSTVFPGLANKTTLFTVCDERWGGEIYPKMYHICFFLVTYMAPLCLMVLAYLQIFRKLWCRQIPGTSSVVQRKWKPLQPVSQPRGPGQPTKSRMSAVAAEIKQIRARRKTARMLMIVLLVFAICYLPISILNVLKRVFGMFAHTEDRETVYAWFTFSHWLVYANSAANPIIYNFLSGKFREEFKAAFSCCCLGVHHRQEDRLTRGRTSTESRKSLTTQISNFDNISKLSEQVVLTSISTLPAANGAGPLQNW
ASSAY_REMARKS: In vitro assay: intracellular calcium measurements (FLIPR), antagonistic activity
Assay type: cell-based
APPLIED_CONDITIONS: CHO cells, 3 nM orexin-A, compound incubation 120 min; marked values are geometric means of n = 2-6; read-out: IC50 OX2
Description: In Vitro Assay: Intracellular Calcium Measurements: […] Fluorescence is measured for each well at 1 second intervals, and the height of each fluorescence peak is compared to the height of the fluorescence peak induced by 3 nM orexin-A with vehicle in place of antagonist. […] The calculated IC50 values may fluctuate depending on the daily cellular assay performance. […]
pIC50: −log10 of the molar value.
Assign class by pIC50: not lower than 7 means Satisfied; lower than 7 means Not satisfied.

Identify whether the reported pIC50 of the following molecule is 7 or greater: COc1cccc(OC)c1C1CCCCC(=O)N1Cc1cccc(-c2cncs2)c1 (centres unmarked)
Satisfied

Identify whether the reported pIC50 of the following molecule is 7 or greater: COc1cccc(OC)c1C1CCCCC(=O)N1Cc1ccc(F)c(-c2ccccn2)c1 (centres unmarked)
Satisfied

Identify whether the reported pIC50 of the following molecule is 7 or greater: COc1cncc(OC)c1C1CCCC(=O)N1Cc1csc(-c2ccccc2)n1 (centres unmarked)
Not satisfied

Identify whether the reported pIC50 of the following molecule is 7 or greater: O=C1CCC(c2ccccc2-c2ccccc2)N1Cc1cccc(-c2ccccc2)c1 (centres unmarked)
Not satisfied

Identify whether the reported pIC50 of the following molecule is 7 or greater: COc1ncnc(OC)c1C1CCCC(=O)N1Cc1csc(-c2ccccc2)n1 (centres unmarked)
Not satisfied

Identify whether the reported pIC50 of the following molecule is 7 or greater: CCOc1cccc(F)c1C1CC(C)C(=O)N1Cc1ccnc(-c2ncc(C)s2)c1 (centres unmarked)
Satisfied

Identify whether the reported pIC50 of the following molecule is 7 or greater: COc1cccc(OC)c1C1CC(C)C(=O)N1Cc1cnn(-c2ccccc2)c1 (centres unmarked)
Not satisfied

Identify whether the reported pIC50 of the following molecule is 7 or greater: CCOc1cccc(F)c1C1CC(C)C(=O)N1Cc1csc(-c2ccc(C)cc2)n1 (centres unmarked)
Satisfied

Identify whether the reported pIC50 of the following molecule is 7 or greater: COc1cccc(OC)c1C1CCC(=O)N1Cc1ccc2oc3ccccc3c2c1 (centres unmarked)
Satisfied

Identify whether the reported pIC50 of the following molecule is 7 or greater: COc1cccc(OC)c1C1CCCC(=O)N1Cc1ccnc(-c2ccccc2)c1 (centres unmarked)
Satisfied

Identify whether the reported pIC50 of the following molecule is 7 or greater: CCOc1ccc(F)c(F)c1[C@@H]1C[C@H](F)C(=O)N1Cc1ccc(OC(F)(F)F)cc1 (racemic)
Satisfied

Identify whether the reported pIC50 of the following molecule is 7 or greater: COc1cccc(OC)c1C1CCCC(=O)N1Cc1cccc(-c2ncc(C)s2)c1 (centres unmarked)
Satisfied

Identify whether the reported pIC50 of the following molecule is 7 or greater: COc1ccnc(OC)c1C1CCCC(=O)N1Cc1cccc(-c2nccs2)c1 (centres unmarked)
Satisfied

Identify whether the reported pIC50 of the following molecule is 7 or greater: COc1cccc(OC)c1C1CCCCC(=O)N1Cc1cnn(-c2ccccc2)c1 (centres unmarked)
Not satisfied

Identify whether the reported pIC50 of the following molecule is 7 or greater: COc1cccc(OC)c1C1CC(C)C(=O)N1Cc1ccc(OCC(F)(F)F)cc1 (centres unmarked)
Not satisfied

Identify whether the reported pIC50 of the following molecule is 7 or greater: COc1cccc(OC)c1C1CCCC(=O)N1Cc1ccc2oc(C)nc2c1 (centres unmarked)
Not satisfied

Identify whether the reported pIC50 of the following molecule is 7 or greater: COc1cccc(OC)c1[C@@H]1C[C@@H](O)C(=O)N1Cc1ccc2oc3ccccc3c2c1 (racemic)
Satisfied

Identify whether the reported pIC50 of the following molecule is 7 or greater: COc1cccc(OC)c1C1CCCC(=O)N1Cc1cc(-c2ccccn2)ccc1F (centres unmarked)
Not satisfied

Identify whether the reported pIC50 of the following molecule is 7 or greater: COc1cccc(OC)c1C1CC(C)C(=O)N1Cc1csc(-c2ccccc2)n1 (centres unmarked)
Satisfied

Identify whether the reported pIC50 of the following molecule is 7 or greater: O=C1CCCCC(c2ccccc2-c2cscn2)N1Cc1cccc(-c2nccs2)c1 (centres unmarked)
Satisfied

Identify whether the reported pIC50 of the following molecule is 7 or greater: COc1cccc(OC)c1C1CC(C)C(=O)N1Cc1cccc(-c2ccccc2)n1 (centres unmarked)
Satisfied

Identify whether the reported pIC50 of the following molecule is 7 or greater: COc1cc(F)ccc1[C@@H]1C[C@@H](O)C(=O)N1Cc1ccc(OC(F)(F)F)cc1 (racemic)
Not satisfied

Identify whether the reported pIC50 of the following molecule is 7 or greater: COc1cccc(OC)c1C1CCCC(=O)N1Cc1cccc(-c2ccccc2)n1 (centres unmarked)
Satisfied

Identify whether the reported pIC50 of the following molecule is 7 or greater: CCOc1cccc(F)c1[C@@H]1C[C@@H](O)C(=O)N1Cc1ccc(OC(F)(F)F)cc1 (racemic)
Satisfied

Identify whether the reported pIC50 of the following molecule is 7 or greater: COc1cccc(OC)c1C1CCCC(=O)N1Cc1ccc(F)c(-c2ccccn2)c1 (centres unmarked)
Satisfied

Identify whether the reported pIC50 of the following molecule is 7 or greater: COc1cncc(OC)c1C1CCCC(=O)N1Cc1cccc(-c2csc(C)n2)c1 (centres unmarked)
Satisfied

Identify whether the reported pIC50 of the following molecule is 7 or greater: COc1cccc(OC)c1C1CC(C)C(=O)N1Cc1cnc2ccccc2c1 (centres unmarked)
Not satisfied

Identify whether the reported pIC50 of the following molecule is 7 or greater: COc1cccc(OC)c1C1CC(C)C(=O)N1Cc1cccc(-c2nccs2)c1 (centres unmarked)
Satisfied

Identify whether the reported pIC50 of the following molecule is 7 or greater: COc1cccc(OC)c1C1CCCC(=O)N1Cc1cccc(N2CCOCC2)c1 (centres unmarked)
Not satisfied

Identify whether the reported pIC50 of the following molecule is 7 or greater: COc1cccc(OC)c1C1CCCCC(=O)N1Cc1cccc(-c2ccccn2)c1 (centres unmarked)
Satisfied

----------
EXPERIMENTAL_SYSTEM: human orexin-2 receptor (Homo sapiens (Human))
ASSAY_REMARKS: In vitro assay: intracellular calcium measurements (FLIPR), antagonistic activity
Assay type: cell-based
APPLIED_CONDITIONS: CHO cells, 3 nM orexin-A, compound incubation time of 10 min; marked values are geometric means of n = 2-6; read-out: IC50 OX2
pIC50: −log10 of the molar value.
// map pIC50 to label using lower bin = under 6, middle bin = from 6 up to 7, upper bin = 7 and over

In plain terms, what class is CC[C@H]1C[C@@H](c2c(OC)cccc2OC)N(Cc2ccc(OC(F)(F)F)cc2)C1=O (racemic) ?
lower bin

In plain terms, what class is COc1cccc(C(F)(F)F)c1C1CCCC(=O)N1Cc1ccc(OC(F)(F)F)cc1 (centres unmarked) ?
lower bin

In plain terms, what class is COc1cc(F)c(C2CCCC(=O)N2Cc2ccc(OC(F)(F)F)cc2)c(F)c1 (centres unmarked) ?
lower bin

In plain terms, what class is O=C1CCCC(c2ccccc2OC(F)(F)F)N1Cc1ccc(OC(F)(F)F)cc1 (centres unmarked) ?
lower bin

In plain terms, what class is COc1cccc(OC)c1C1CC(C)C(=O)N1Cc1cccc(OC(F)F)n1 (centres unmarked) ?
middle bin

In plain terms, what class is COc1cccc(OC)c1[C@@H]1C[C@@H](Cl)C(=O)N1Cc1ccc(OC(F)(F)F)cc1 (racemic) ?
middle bin

In plain terms, what class is COc1cccc(OC)c1C1CCCC(=O)N1Cc1ccc2c(ccn2C)c1 (centres unmarked) ?
middle bin

In plain terms, what class is COc1cccc(OC)c1C1CCCC(=O)N1Cc1ccc2c(c1)OC(F)(F)O2 (centres unmarked) ?
middle bin

In plain terms, what class is COc1cccc(OC)c1C1CCCC(=O)N1Cc1cc2ccccc2s1 (centres unmarked) ?
middle bin

In plain terms, what class is CCOc1ccccc1C1CCC(=O)N1Cc1ccc(OC(F)(F)F)cc1 (centres unmarked) ?
middle bin

In plain terms, what class is COc1ccccc1C1CCCC(=O)N1Cc1ccc(OC(F)(F)F)cc1 (centres unmarked) ?
middle bin

In plain terms, what class is COc1cccc(OC)c1C1CCCC(=O)N1Cc1ccc2ccccc2c1 (centres unmarked) ?
upper bin

In plain terms, what class is COc1cccc(OC)c1C1CNCC(=O)N1Cc1ccc(OC(F)(F)F)cc1 (centres unmarked) ?
middle bin

In plain terms, what class is COc1cccc(OCCCO)c1C1CCCC(=O)N1Cc1ccc(OC(F)(F)F)cc1 (centres unmarked) ?
middle bin

In plain terms, what class is COc1cccc(OC)c1C1CCCC(=O)N1Cc1ccc(-n2cccn2)cc1 (centres unmarked) ?
middle bin

In plain terms, what class is O=C1CCCC(c2c(F)cccc2C(F)(F)F)N1Cc1ccc(OC(F)(F)F)cc1 (centres unmarked) ?
lower bin

In plain terms, what class is COc1cc(F)cc(OC)c1C1CCCC(=O)N1Cc1ccc(OC(F)(F)F)cc1 (centres unmarked) ?
upper bin

In plain terms, what class is CCCOc1ccc(CN2C(=O)CCCC2c2c(OC)cccc2OC)cc1 (centres unmarked) ?
upper bin

These measurements were taken from patent US9242970B2.
